target: Plasma Kallikrein (Homo sapiens (Human), UniProt P03952); experiment: Determination of related protease inhibition: Plasma Kallikrein (fluorogenic substrate at Km); conditions: 25° C., read-out: IC50 (human PKal)
Sequence (P03952 391-638): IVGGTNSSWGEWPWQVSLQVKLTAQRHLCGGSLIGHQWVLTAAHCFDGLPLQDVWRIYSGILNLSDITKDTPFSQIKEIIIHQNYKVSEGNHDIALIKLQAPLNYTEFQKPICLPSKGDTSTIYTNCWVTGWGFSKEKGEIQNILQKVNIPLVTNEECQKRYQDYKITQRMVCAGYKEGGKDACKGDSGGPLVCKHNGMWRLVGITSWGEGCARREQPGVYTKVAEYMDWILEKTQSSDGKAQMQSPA
Sequence (P03952 20-390 partner): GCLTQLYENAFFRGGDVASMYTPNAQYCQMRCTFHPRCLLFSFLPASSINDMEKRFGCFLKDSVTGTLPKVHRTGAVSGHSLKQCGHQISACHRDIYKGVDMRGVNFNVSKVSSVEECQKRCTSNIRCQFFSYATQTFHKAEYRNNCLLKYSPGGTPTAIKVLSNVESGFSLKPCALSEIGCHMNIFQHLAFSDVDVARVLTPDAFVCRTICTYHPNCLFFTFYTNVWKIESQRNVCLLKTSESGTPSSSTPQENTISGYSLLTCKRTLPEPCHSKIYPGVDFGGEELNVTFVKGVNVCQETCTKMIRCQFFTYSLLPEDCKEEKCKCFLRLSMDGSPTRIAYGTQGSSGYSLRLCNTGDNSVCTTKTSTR
Please provide measured IC50 for the entries that follow.

[ask] Any idea what IC50 came out for COC(=O)c1cc2c(NCc3ccc(NCC4CCN(C)CC4)nc3)ccnc2[nH]1 [Example 1247] on Plasma Kallikrein (Homo sapiens (Human), UniProt P03952)?
[reply] > 100 µM

[ask] Look up IC50 with Plasma Kallikrein (Homo sapiens (Human), UniProt P03952) for this compound: Cc1c[nH]c2nccc(NCc3ccc(NCC4CCN(C)CC4)nc3)c12 [Example 1226]
[reply] > 100 µM

[ask] Fill in the recorded IC50 for this compound, with Plasma Kallikrein (Homo sapiens (Human), UniProt P03952) as test system: Nc1ncc(Cl)c2cc(NCc3ccnc(OCC4CCn5ccnc5C4)c3)ccc12 (single isomer, unassigned) [Example 4438]
[reply] 10 to 40 µM

[ask] Any idea what IC50 came out for CN1CCC(CNc2ccc(CNc3ccnc4[nH]ncc34)cn2)CC1 [Example 1218] on Plasma Kallikrein (Homo sapiens (Human), UniProt P03952)?
[reply] > 100 µM

[ask] Kindly state the measured IC50 obtained for Nc1nccc2c(NCc3ccc(N4CCn5ccnc5C4CO)nc3)cccc12 (centres unmarked) [Example 1140] with Plasma Kallikrein (Homo sapiens (Human), UniProt P03952).
[reply] > 40 µM

[ask] Value wanted: IC50 (Plasma Kallikrein (Homo sapiens (Human), UniProt P03952)) of entry CN1CCC(Oc2ccc(CNc3ccc4c(N)nccc4c3)cn2)CC1 [Example 1001]
[reply] 1 to 3 µM

[ask] # query: IC50 | item CN1CCC(COc2cc(CNc3cccc4c(N)nccc34)cc(C(F)(F)F)n2)CC1 [Example 4281] | system: Plasma Kallikrein (Homo sapiens (Human), UniProt P03952)
[reply] > 40 µM

[ask] // lookup IC50 | system=Plasma Kallikrein (Homo sapiens (Human), UniProt P03952) | key= Nc1nccc2c(NCc3ccnc(OCC4CCn5ccnc5C4)c3)cccc12 (centres unmarked) [Example 4298]
[reply] > 40 µM

====

target: UniProtKB P00748
Sequence (P00748 373-615): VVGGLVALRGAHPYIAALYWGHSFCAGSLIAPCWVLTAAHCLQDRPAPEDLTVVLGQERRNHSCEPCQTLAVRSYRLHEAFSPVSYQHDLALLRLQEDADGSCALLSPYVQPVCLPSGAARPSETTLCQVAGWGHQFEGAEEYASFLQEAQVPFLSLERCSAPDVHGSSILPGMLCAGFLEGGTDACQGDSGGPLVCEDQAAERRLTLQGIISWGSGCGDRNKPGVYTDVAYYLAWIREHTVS
assay_readout: IC50

[ask] Requested read-out IC50, target or system UniProtKB P00748, entry CN1CC2CCC(C1)C2COc1cc(CNc2cccc3c(N)nccc23)ccn1 (stereo not shown) [Example 4278]
[reply] 0.1 to 0.3 µM

[ask] // fetch UniProtKB P00748 IC50 for CN1CCC(OCc2ccc(CNc3ccc4cc(N)ncc4c3)cc2)CC1 [Example 2188]
[reply] 10 to 40 µM

[ask] Query IC50 on UniProtKB P00748 for Nc1ncc(Cl)c2cc(NCc3ccnc(N4CCn5ccnc5C4)c3)ccc12 [Example 5437]
[reply] 10 to 40 µM

[ask] # get_value(readout= IC50, system= UniProtKB P00748) for CC(C)(O)CN1CCC(COc2ccc(CNc3ccc4c(N)nccc4c3)cn2)CC1 [Example 1017]
[reply] 0.3 to 1 µM

[ask] Can you look up IC50 on UniProtKB P00748 for CN1CCC(COc2ccc(CNc3ccc4cncc(CO)c4c3)cn2)CC1 [Example 1026] ?
[reply] 10 to 40 µM

[ask] Recall the recorded IC50 for CN1CCC(OCc2ccc(COc3ccc4c(N)nccc4c3)cc2)CC1 [Example 1011] with UniProtKB P00748 and state it.
[reply] 3 to 10 µM

[ask] Recorded IC50 for CC(C)(O)c1cnc2n1CCN(c1ccc(CNc3cccc4c(N)nccc34)cn1)C2 [Example 1167] with UniProtKB P00748, please?
[reply] 3 to 10 µM

[ask] API: value(readout= IC50, system= UniProtKB P00748, query= Nc1nccc2c(NCc3ccnc(OCC4CCn5ccnc5C4)c3)cccc12 (stereo not shown) [Example 4298] )
[reply] 0.01 to 0.1 µM

[ask] Give the reported IC50 for CCc1cc(N2CCn3c(nnc3C(F)(F)F)C2)ncc1CNc1cccc2c(N)nccc12 [Example 1309] (system: UniProtKB P00748).
[reply] 0.01 to 0.1 µM

[ask] Item CCC1c2nnc(C(F)(F)F)n2CCN1c1cc(C)c(CNc2cccc3c(N)nccc23)cn1 (single isomer, unassigned) [Example 1321] with UniProtKB P00748 - IC50?
[reply] 0.1 to 0.3 µM

[ask] Return IC50 measured with UniProtKB P00748 given this compound: Cc1cc(N2CCn3c(nnc3C(F)(F)F)C2)ncc1CNc1ccc2c(N)ncc(Cl)c2c1 [Example 1334]
[reply] 0.3 to 1 µM

[ask] Entry Nc1ncc(Cl)c2cc(NCc3ccnc(OCC4CCCn5ccnc54)c3)ccc12 (single isomer, unassigned) [Example 4451] , system UniProtKB P00748: what IC50 was measured?
[reply] 0.3 to 1 µM

[ask] What is its IC50 for UniProtKB P00748? Entry: Cc1cc(N2CCn3c(nnc3C(F)(F)F)C2)ccc1CNc1cccc2c(N)nccc12 [Example 2257]
[reply] 0.1 to 0.3 µM

[ask] # get_value(readout= IC50, system= UniProtKB P00748) for CNC(=O)c1cc(NCc2ccnc(OCC3CCN(C)CC3)c2)cc2ccncc12 [Example 4463]
[reply] 40 to 100 µM

[ask] UniProtKB P00748 / IC50 / CN1CCN(CCc2ccc(CNc3ccc4c(N)nccc4c3)c(F)c2)CC1 [Example 2181] : value?
[reply] 0.3 to 1 µM

[ask] Lab request: please report IC50 under test system UniProtKB P00748 for CN1CCC(OCc2ccc(CNc3ccc4nc(N)ccc4c3)cc2)CC1 [Example 2187]
[reply] 3 to 10 µM

[ask] Can you look up IC50 on UniProtKB P00748 for Cc1cc2c(NCc3ccc(NCC4CCN(C)CC4)nc3)cncc2[nH]1 [Example 1232] ?
[reply] 0.3 to 1 µM

[ask] Please state recorded IC50 (tested on UniProtKB P00748) of Cn1ccnc1CCCOc1cc(CNc2ccc3c(N)nccc3c2)ccn1 [Example 4420]
[reply] 1 to 3 µM

[ask] Provide value of IC50 for this record tested with UniProtKB P00748: CN1CCC(CNc2ccc(CNc3c(F)cnc4[nH]ccc34)cn2)CC1 [Example 1206]
[reply] 40 to 100 µM

[ask] Recall the recorded IC50 for Nc1ncc(Cl)c2cc(NCc3ccnc(OCc4ccn5ccnc5c4)c3)ccc12 [Example 4433] with UniProtKB P00748 and state it.
[reply] 1 to 3 µM

[ask] State its IC50 on UniProtKB P00748: Nc1nccc2c(NCc3ccnc(OCC4CCn5c(nnc5C(F)F)C4)c3)cccc12 (stereo not shown) [Example 4467]
[reply] 0.1 to 0.3 µM

[ask] Reported IC50 for UniProtKB P00748, given CN1CCC(CNc2ccc(CNc3cc(Cl)c4cnccc4c3)cn2)CC1 [Example 1208] ?
[reply] 3 to 10 µM

[ask] Give IC50 (UniProtKB P00748) of the following compound: Nc1nccc2c(NCc3cnc(N4CCn5c(nnc5C(F)(F)F)C4)cc3Cl)cccc12 [Example 1299]
[reply] 0.01 to 0.1 µM

[ask] GET /values?readout=IC50&system=UniProtKB P00748&item= CN1CCC(C)(COc2cc(CNc3ccc4c(N)nccc4c3)ccn2)CC1 [Example 4425]
[reply] 0.3 to 1 µM

[ask] Give the reported IC50 for COc1ccc(NCc2ccnc(OCC3CCN(C)CC3)c2)c2ccnc(N)c12 [Example 4470] (system: UniProtKB P00748).
[reply] 10 to 40 µM

[ask] Give the reported IC50 for Cc1cc(N2CCn3c(nnc3C(F)(F)F)C2)ncc1CNc1ccnc2[nH]c(Cl)cc12 [Example 1313] (system: UniProtKB P00748).
[reply] 0.1 to 0.3 µM

[ask] Hi! What's the reported IC50 for Nc1ncc(Cl)c2cc(NCc3ccnc(OCC4CCn5cc(CO)nc5C4)c3)ccc12 (stereo not shown) [Example 4449] on UniProtKB P00748?
[reply] 0.3 to 1 µM

[ask] Please provide the recorded IC50 for CN1CCC(Cn2cc(CNc3ccc4c(N)nccc4c3)cn2)CC1 [Example 3253] , tested on UniProtKB P00748.
[reply] 1 to 3 µM

[ask] Lab note: need IC50 for CN1CCC(CNc2ccc(CNc3ccnc4[nH]c(C(N)=O)cc34)cn2)CC1 [Example 1252] on UniProtKB P00748, anyone have it?
[reply] 10 to 40 µM

[ask] Give UniProtKB P00748 IC50 for Nc1nccc2c(NCc3ccc(N4CCn5c(nnc5C(F)(F)F)C4)cc3F)cccc12 [Example 2256]
[reply] 0.01 to 0.1 µM

[ask] Give the reported IC50 for Cn1ccc(COc2cc(CNc3cccc4c(N)nccc34)ccn2)cc1=O [Example 4301] (system: UniProtKB P00748).
[reply] 0.3 to 1 µM

[ask] // map Cc1n[nH]c2c1CCC2Nc1cc(CNc2ccc3c(N)ncc(Cl)c3c2)ccn1 (stereo not shown) [Example 4440] to recorded IC50 (system: UniProtKB P00748)
[reply] 10 to 40 µM

[ask] Fill in the recorded IC50 for this compound, with UniProtKB P00748 as test system: CN1CCC(CNc2ccc(CNc3cc(F)c4c(N)nccc4c3)cn2)CC1 [Example 1245]
[reply] 3 to 10 µM

[ask] Can you look up IC50 on UniProtKB P00748 for CN1CCC(CNc2ccc(CNc3ccc4c(N)ncc(F)c4c3)cn2)CC1 [Example 1195] ?
[reply] 0.1 to 0.3 µM
